Target: human plasma kallikrein (HPK) (Homo sapiens, UniProt P03952)
Sequence (P03952 20-638): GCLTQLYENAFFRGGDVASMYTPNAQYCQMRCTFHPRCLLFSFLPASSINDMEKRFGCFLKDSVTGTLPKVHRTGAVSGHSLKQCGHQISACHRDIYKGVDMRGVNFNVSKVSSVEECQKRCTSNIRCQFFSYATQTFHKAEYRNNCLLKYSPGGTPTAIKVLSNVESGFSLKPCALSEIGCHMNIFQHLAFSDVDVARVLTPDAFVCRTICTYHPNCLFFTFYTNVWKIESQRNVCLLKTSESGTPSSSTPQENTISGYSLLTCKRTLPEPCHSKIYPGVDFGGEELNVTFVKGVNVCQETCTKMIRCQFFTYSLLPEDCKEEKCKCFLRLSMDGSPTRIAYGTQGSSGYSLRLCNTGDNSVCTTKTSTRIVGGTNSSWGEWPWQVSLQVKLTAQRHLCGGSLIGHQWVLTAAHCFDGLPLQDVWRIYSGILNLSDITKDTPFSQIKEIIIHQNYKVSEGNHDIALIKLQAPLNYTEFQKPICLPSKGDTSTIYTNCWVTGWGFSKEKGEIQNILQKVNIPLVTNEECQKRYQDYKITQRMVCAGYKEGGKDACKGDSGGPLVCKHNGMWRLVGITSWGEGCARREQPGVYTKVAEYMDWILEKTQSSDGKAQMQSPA
Assay: Inhibition of human plasma kallikrein (KI)
Type: biochemical
Conditions: Table 7, in mM; read-out: K1 HPK
Non-standard residues stand in square brackets, D forms with d. Residues, ends and D or L forms follow the SMILES beside them. Phe(4-NH2) = Nc1ccc(C[C@H](N)C(=O)O)cc1; Cit = NC(=O)NCCC[C@H](N)C(=O)O; Orn = NCCC[C@H](N)C(=O)O
TEST READOUT: Ki

Please review the following examples before continuing.
[[record]]
molecule = "CC(C)[C@H](NC(=O)[C@H](CO)NC(=O)[C@H](Cc1c[nH]cn1)NC(=O)[C@H](Cc1ccccc1)NC(=O)[C@@H]1CCCN1)C(=O)N[C@@H](CCC(N)=O)C(N)=O [KIDZ-12, Pro-Phe-His-Ser-Val-Gln] (H-PFHSVQ-NH2)"
assay_result = "> 20 mM"

[[record]]
molecule = "CC(C)[C@H](NC(=O)[C@H](CO)NC(=O)[C@H](CCCN)NC(=O)[C@H](Cc1ccccc1)NC(=O)[C@@H]1CCCN1)C(=O)N[C@@H](CCC(N)=O)C(N)=O [KIDZ-3, Pro-Phe-Orn-Ser-Val-Gln] (H-PF[Orn]SVQ-NH2)"
assay_result = "> 5 mM"

[[record]]
molecule = "CC(C)[C@H](NC(=O)[C@H](CO)NC(=O)[C@H](Cc1ccc(N)cc1)NC(=O)[C@H](Cc1ccccc1)NC(=O)[C@@H]1CCCN1)C(=O)N[C@@H](CCC(N)=O)C(N)=O [KIDZ-6, Pro-Phe-Aph-Ser-Val-Gla] (H-PF[Phe(4-NH2)]SVQ-NH2)"
assay_result = "> 10 mM"

[[record]]
molecule = "CC(C)[C@H](NC(=O)[C@H](CO)NC(=O)[C@H](CCCNC(N)=O)NC(=O)[C@H](Cc1ccccc1)NC(=O)[C@@H]1CCCN1)C(=O)N[C@@H](CCC(N)=O)C(N)=O [KIDZ-7, Pro-Phe-Cit-Ser-Val-Gln] (H-PF[Cit]SVQ-NH2)"
assay_result = "> 5 mM"


Name the recorded Ki for CSCC[C@H](NC(=O)[C@H](Cc1ccccc1)NC(=O)[C@@H]1CCCN1)C(=O)N[C@@H](CO)C(=O)N[C@H](C(=O)N[C@@H](CCC(N)=O)C(N)=O)C(C)C [KIDZ-13, Pro-Phe-Met-Ser-Val-Gln] (H-PFMSVQ-NH2) .
> 20 mM

----------
Molecular target: human urinary kallikrein (HUK) (Homo sapiens, UniProt P06870)
Construct: Human urinary kallikrein (HUK) was purified from human urine; from tissue
Sequence (P06870 25-262): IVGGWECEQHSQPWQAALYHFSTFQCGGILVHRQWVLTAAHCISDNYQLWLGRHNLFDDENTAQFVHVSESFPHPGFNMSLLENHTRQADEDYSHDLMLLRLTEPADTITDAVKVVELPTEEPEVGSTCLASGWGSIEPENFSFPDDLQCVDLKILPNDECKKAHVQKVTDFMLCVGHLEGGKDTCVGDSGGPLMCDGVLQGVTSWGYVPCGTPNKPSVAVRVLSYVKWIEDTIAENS
Assay: Inhibition of human urinary (tissue) kallikrein (KI)
Type: biochemical
Details: Table 5, Pro-Phe-Arg-X-Val-Gln; read-out: KI HUK
Residues, ends and D or L forms follow the SMILES beside them.
TEST READOUT: pKi
The meaning of pKi here: minus log10 of the concentration in molar units.

Name the recorded pKi for CC(C)[C@H](NC(=O)[C@H](CC(N)=O)NC(=O)[C@H](CCCNC(=N)N)NC(=O)[C@H](Cc1ccccc1)NC(=O)[C@@H]1CCCN1)C(=O)N[C@@H](CCC(N)=O)C(N)=O [Asn] (H-PFRNVQ-NH2) .
4.00

----------
Biological target: human plasma kallikrein (HPK) (Homo sapiens, UniProt P03952)
Assay: Inhibition of human plasma kallikrein (KI)
Format: biochemical
Settings: Table 6, HUK; read-out: KI HUK
Non-standard residues stand in square brackets, D forms with d. Residues, ends and D or L forms follow the SMILES beside them. hArg = N=C(N)NCCCC[C@H](N)C(=O)O
TEST READOUT: Ki (µM)

[1] CC(C)[C@H](N)C(=O)N[C@@H](Cc1ccccc1)C(=O)N[C@@H](CCCCNC(=N)N)C(=O)N[C@@H](CC(N)=O)C(=O)N[C@@H](CCCCNC(=N)N)C(=O)N[C@@H](CCC(N)=O)C(N)=O [Val-Phe-hArg-Asn-hArg-Gln] (H-VF[hArg]N[hArg]Q-NH2)
[2] N=C(N)NCCC[C@H](NC(=O)[C@H](CC(N)=O)NC(=O)[C@H](CCCNC(=N)N)NC(=O)[C@H](Cc1ccccc1)NC(=O)[C@@H](N)CCCNC(=N)N)C(=O)N[C@@H](CCC(N)=O)C(N)=O [Arg-Phe-Arg-Asn-Arg-Gln] (H-RFRNRQ-NH2)
[3] CC(C)[C@H](N)C(=O)N[C@@H](Cc1ccccc1)C(=O)N[C@@H](CCCNC(=N)N)C(=O)N[C@@H](CC(N)=O)C(=O)N[C@@H](CCCNC(=N)N)C(=O)N[C@@H](CCC(N)=O)C(N)=O [Val-Phe-Arg-Asn-Arg-Gln] (H-VFRNRQ-NH2)
[4] CC(C)[C@H](N)C(=O)N[C@@H](Cc1ccccc1)C(=O)N[C@@H](CCCNC(=N)N)C(=O)N[C@@H](CC(N)=O)C(=O)N[C@H](CCCNC(=N)N)C(=O)N[C@@H](CCC(N)=O)C(N)=O [Val-Phe-Arg-Asn-dArg-Gln] (H-VFRN[dR]Q-NH2)
Sort the 4 compounds by Ki; largest first, smallest last. List the labels according to the requested ordering.
4, 3, 1, 2

Data origin, for the record: patent US5464820A
